Give solubility change mitosis (log2) for every item shown.
- Test system: HeLa Kyoto
- Test Method Notes: solubility change mitosis vs G1/S (difference of NP-40 vs SDS log2 ratios) (log2 ratio difference); higher = more soluble in mitosis
Numbers only.

MASSNTVLMRLVASAYSIAQKAGMIVRRVIAEGDLGIVEKTCATDLQTKADRLAQMSICSSLARKFPKLTIIGEEDLPSEEVDQELIEDSQWEEILKQPCPSQYSAIKEEDLVVWVDPLDGTKEYTEGLLDNVTVLIGIAYEGKAIAGVINQPYYNYEAGPDAVLGRTIWGVLGLGAFGFQLKEVPAGKHIITTTRSHSNKLVTDCVAAMNPDAVLRVGGAGNKIIQLIEGKASAYVFASPGCKKWDTCAPEVILHAVGGKLTDIHGNVLQYHKDVKHMNSAGVLATLRNYDYYASRVPESIKNALVP [BPNT1] | -0.0215

Pending sequence:
### Prompt Tell us which solubility change mitosis (log2) value is on record for MLETLRERLLSVQQDFTSGLKTLSDKSREAKVKSKPRTVPFLPKYSAGLELLSRYEDTWAALHRRAKDCASAGELVDSEVVMLSAHWEKKKTSLVELQEQLQQLPALIADLESMTANLTHLEASFEEVENNLLHLEDLCGQCELERCKHMQSQQLENYKKNKRKELETFKAELDAEHAQKVLEMEHTQQMKLKERQKFFEEAFQQDMEQYLSTGYLQIAERREPIGSMSSMEVNVDMLEQMDLMDISDQEALDVFLNSGGEENTVLSPALGPESSTCQNEITLQVPNPSELRAKPPSSSSTCTDSATRDISEGGESPVVQSDEEEVQVDTALATSHTDREATPDGGEDSDS [DTNBP1]
### Response -0.387

* * *

- System: HeLa Kyoto;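 also: synchronized HeLa Kyoto cells (double thymidine block for G1/S, nocodazole release for mitosis), protein amounts in NP-40 versus SDS lysates quantified by mass spectrometry, three biological replicates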
- Test Method Notes: solubility change mitosis vs G1/S (difference of NP-40 vs SDS log2 ratios) (log2 ratio difference); higher = more soluble in mitosis
Measured Attribute: solubility change mitosis (log2)

The examples below pair each entry with its known result.
MALNKNHSEGGGVIVNNTESILMSYDHVELTFNDMKNVPEAFKGTKKGTVYLTPYRVIFLSKGKDAMQSFMMPFYLMKDCEIKQPVFGANYIKGTVKAEAGGGWEGSASYKLTFTAGGAIEFGQRMLQVASQASRGEVPSGAYGYSYMPSGAYVYPPPVANGMYPCPPGYPYPPPPPEFYPGPPMMDGAMGYVQPPPPPYPGPMEPPVSGPDVPSTPAAEAKAAEAAASAYYNPGNPHNVYMPTSQPPPPPYYPPEDKKTQ [WBP2] | -0.0665
MESPASSQPASMPQSKGKSKRKKDLRISCMSKPPAPNPTPPRNLDSRTFITIGDRNFEVEADDLVTISELGRGAYGVVEKVRHAQSGTIMAVKRIRATVNSQEQKRLLMDLDINMRTVDCFYTVTFYGALFREGDVWICMELMDTSLDKFYRKVLDKNMTIPEDILGEIAVSIVRALEHLHSKLSVIHRDVKPSNVLINKEGHVKMCDFGISGYLVDSVAKTMDAGCKPYMAPERINPELNQKGYNVKSDVWSLGITMIEMAILRFPYESWGTPFQQLKQVVEEPSPQLPADRFSPEFVDFTAQCLRKNPAERMSYLELMEHPFFTLHKTKKTDIAAFVKEILGEDS [MAP2K3] | -0.112

### Prompt Tell us which solubility change mitosis (log2) value is on record for MADEIAKAQVARPGGDTIFGKIIRKEIPAKIIFEDDRCLAFHDISPQAPTHFLVIPKKHISQISVAEDDDESLLGHLMIVGKKCAADLGLNKGYRMVVNEGSDGGQSVYHVHLHVLGGRQMHWPPG [HINT1]
### Response 0.17

The reported numbers originate from the supplement of paper PMC5998384.
